Exercise: for every item that follows, state its recorded MIC90.
- System: MRSA NCTC 10442
- procedure.text: MIC, broth microdilution
- Format: cell-based
- condition.parameters: Staphylococcus aureus; 24-hour incubation, MHB; read-out: MIC90 MRSA NCTC 10442
One number for each entry, in µg/mL.

Solved entries (count: 10):
> print(dat)
                                    molecule  readout.number
 1  CNCCCCCCCCOc1ccc2c(=O)c3c(OCC=C(C)C)cc(OCCCCCCCCNC)cc3oc2c1 [XT37]            0.39
 2  CNCCCCCCCCCCCCOc1ccc2c(=O)c3c(OCC=C(C)C)cc(OCCCCCCCCCCCCNC)cc3oc2c1 [XT40]            6.25
 3  [H]/N=C(/N)NCCCOc1ccc2c(=O)c3c(OCC=C(C)CCC=C(C)C)cc(OCCCNC(=N)N)cc3oc2c1 [XT18]            0.78
 4  CCCCN(CCCC)CCCOc1ccc2c(=O)c3c(OCC=C(C)C)cc(OCCCN(CCCC)CCCC)cc3oc2c1 [XT10]            12.5
 5  CC(C)=CCOc1cc(OCCNC(=N)N)cc2oc3cc(OCCNC(=N)N)ccc3c(=O)c12 [XT42]            1.56
 6  CCN(CC)CCCOc1ccc2c(=O)c3c(OCC=C(C)C)cc(OCCCN(CC)CC)cc3oc2c1 [XT09]            6.25
 7  CC(C)=CCOc1cc(OCCCNC(=N)N)cc2oc3cc(OCCCNC(=N)N)ccc3c(=O)c12 [XT17]            0.39
 8  CNCCCCCCOc1ccc2c(=O)c3c(OCC=C(C)C)cc(OCCCCCCNC)cc3oc2c1 [XT34]            1.56
 9  CCN(CC)CCCCCCCCOc1ccc2c(=O)c3c(OCC=C(C)C)cc(OCCCCCCCCN(CC)CC)cc3oc2c1 [XT38]            1.56
10  CCN(CC)CCCCOc1ccc2c(=O)c3c(OCC=C(C)C)cc(OCCCCN(CC)CC)cc3oc2c1 [XT32]            3.12

# batch: return MIC90 for each of the 6 molecules below
1. CC(C)=CCOc1cc(OCCCN)cc2oc3cc(OCCCN)ccc3c(=O)c12 [XT07]
2. CC(C)=CCOc1cc(OCCCNCCN(CCN)CCN)cc2oc3cc(OCCCNCCN(CCN)CCN)ccc3c(=O)c12 [XT13]
3. CNCCCOc1ccc2c(=O)c3c(OCC=C(C)C)cc(OCCCNC)cc3oc2c1 [XT08]
4. CC(C)=CCOc1cc(OCCCCCCCCNC(=N)N)cc2oc3cc(OCCCCCCCCNC(=N)N)ccc3c(=O)c12 [XT45]
5. O=c1c2ccc(O)cc2oc2cc(O)cc(O)c12 [XT01]
6. CC(C)=CCOc1cc(OCCCCNC(=N)N)cc2oc3cc(OCCCCNC(=N)N)ccc3c(=O)c12 [XT43]

[12.5, 6.25, 12.5, 0.39, 50, 0.195]

Data provenance: paper PMC11881906
